Species on record: Rattus norvegicus
Test: Inhibition of rat recombinant Rab geranylgeranyltransferase at 100 uM in presence of canine Rab7 and rat REP1 NBD-FPP based continuous fluorimetric assay
Peptide text beside a SMILES is read from it. * marks the point of attachment. Undecanoyl = CCCCCCCCCCC(=O)*; NHOH = ON*
outcome-measure: inhibition (%)

# example entries with known answers
O=C(N[C@@H](CO)C(=O)N[C@@H](Cc1ccccc1)C(=O)N[C@@H](CO)C(=O)Nc1ccccc1)C(Br)C(Br)c1ccc(F)cc1 (stereo partly specified)
81
O=C(/C=C/c1ccc(F)cc1)N[C@@H](CO)C(=O)NCC(=O)N[C@@H](CO)C(=O)NC1CCCCC1
81
O=C(CNC(=O)c1csc(-c2ccccc2)n1)N[C@@H](Cc1ccccc1)C(=O)N[C@@H](Cc1c[nH]cn1)C(=O)O
70
CCCCCCCCCCCOc1ccc(C(=O)N[C@@H](Cc2cnc[nH]2)C(=O)N[C@@H](Cc2ccc(O)cc2)C(=O)N[C@@H](Cc2ccccc2)C(=O)NCC(O)CO)cc1 (stereo partly specified)
93

[A] CCCCCCCCCCC(=O)N[C@@H](Cc1ccc(O)cc1)C(=O)N[C@@H](Cc1c[nH]cn1)C(=O)N[C@@H](Cc1ccc(O)cc1)C(=O)NO (Undecanoyl-Tyr-His-Tyr-{NHOH})
[B] CCCCCCCCCCCCCC(=O)OC[C@H](NC(=O)[C@@H](NC(=O)[C@H](CCCCNC(=O)c1coc(-c2ccccc2)n1)NC(=O)c1coc(-c2ccccc2)n1)[C@H](C)O)C(=O)O
Select one: A or B . Criterion: greater recorded inhibition. Please reply using the label of the selected record.
A
(A: 88%, B: 54%)

###

Species on record: Rattus norvegicus
Experiment: Inhibition of rat recombinant Rab geranylgeranyltransferase at 100 uM in presence of canine Rab7 and rat REP1 NBD-FPP based continuous fluorimetric assay
Peptide text beside a SMILES is read from it. * marks the point of attachment. Cbz = O=C(OCc1ccccc1)*
outcome-measure: inhibition (%)

O=C(CNC(=O)c1coc(-c2ccccc2)n1)N[C@@H](Cc1cn(C(c2ccccc2)(c2ccccc2)c2ccccc2)cn1)C(=O)N[C@@H](Cc1ccccc1)C(=O)O
77

[A] COC(=O)[C@H](Cc1ccc(O)cc1)NC(=O)CNC(=O)[C@H](Cc1c[nH]cn1)NC(=O)OCc1ccccc1 (Cbz-His-Gly-Tyr-OMe)
[B] C[C@H](NC(=O)[C@@H](NC(=O)c1ccc(-c2ccccc2)cc1)[C@@H](C)O)C(=O)N[C@@H](CCC(N)=O)C(=O)Nc1nccs1
Just curious, which one has the larger inhibition reading, A or B ? Give the label under which the chosen entry appears.
B
(B: 108%, A: 70%)

[1] O=C(CCc1ccc(F)cc1)N[C@@H](Cc1ccc(O)cc1)C(=O)NCC(=O)N[C@@H](Cc1ccc(O)cc1)C(=O)NC1CCCCC1
[2] CCCCCCCCCCC(=O)N[C@@H](Cc1ccc(O)cc1)C(=O)N[C@@H](Cc1c[nH]cn1)C(=O)N[C@@H](Cc1ccc(O)cc1)C(=O)OCCN
Smaller inhibition value, 1 vs 2 ? Write down the label attached to your selection.
2
(2: 61%, 1: 88%)

###

Species on record: Rattus norvegicus
Assay: Inhibition of rat recombinant Rab geranylgeranyltransferase at 100 uM in presence of canine Rab7 and rat REP1 NBD-FPP based continuous fluorimetric assay
Peptide text beside a SMILES is read from it. * marks the point of attachment. Undecanoyl = CCCCCCCCCCC(=O)*
outcome-measure: inhibition (%)

O=C(N[C@@H](Cc1c[nH]cn1)C(=O)N[C@@H](Cc1ccc(O)cc1)C(=O)N[C@@H](Cc1ccccc1)C(=O)O)OCc1ccc(OCc2ccccc2)cc1
53

[P] O=C(CNC(=O)[C@@H]1CCCN1C(=O)/C=C/c1ccccc1)N[C@@H](Cc1ccccc1)C(=O)NC1CCCCC1
[Q] C[C@H](NC(=O)[C@@H](NC(=O)c1ccc(-c2ccccc2)cc1)[C@@H](C)O)C(=O)N[C@@H](CCC(=O)O)C(=O)OCCCCO
[R] CC(C)C[C@H](NC(=O)[C@@H]1CCCN1C(=O)/C=C/c1ccccc1)C(=O)N[C@@H](Cc1ccccc1)C(=O)NCc1ccc(F)cc1F
Ordering: ascending inhibition. Could you list the labels in the order requested?
R, P, Q

[a] CCCCCCCCCCC(=O)N[C@@H](Cc1c[nH]cn1)C(=O)N[C@@H](Cc1c[nH]cn1)C(=O)N[C@@H](CO)C(N)=O (Undecanoyl-His-His-Ser-NH2)
[b] O=C(CNC(=O)[C@H](Cc1ccccc1)NC(=O)c1coc(-c2ccccc2)n1)N[C@@H](CO)C(=O)Nc1cncs1
Of a versus b , which is the one with smaller reported inhibition? Respond using the label that marks the chosen record.
a
(a: 81%, b: 116%)
